The values you see were collected from paper PMC11881554.

Assay: Plasma pharmacokinetics of MB076 after single IV dose in thigh-infected mice
Format: in vivo, mouse
Settings: mouse; 50 mg/kg single IV, plasma, thigh-infected mice; read-out: AUClast
Method: A single dose PK study was conducted in mice infected with K. pneumoniae AR-BANK#0098 (producing KPC-2, OXA-9, and TEM-1) employing a thigh infection model. Escalating doses of MB076 (12.5, 25, 50, and 100 mg/kg) were intravenously administered via the tail vein. […] Plasma was separated by centrifugation at 4,000g for 10 min at 4°C and stored at −80°C until MB076 quantification was performed by LC/MS-MS bioanalysis. […]
measurement-name: AUC(0-t) (ng·h/mL)
Answers are plain numbers, in ng·h/mL.

Report AUC(0-t) for `Nc1nnc(SCC(=O)N[C@@H](Cn2cc(C(=O)O)nn2)B(O)O)s1` please.
39000
